- Tested on: HOP-92
- assayComment: NCI tumour cell line growth inhibition, 48 h
Activity calls are given as the source filed them. Cut-off read from the data, not from the text of the source: active = GI50 up to about 1.1 µM and inactive = higher. Peptide text beside a SMILES is read from it. * marks the point of attachment. Boc = CC(C)(C)OC(=O)*
Outcomes: active, inactive

>  <compound>
[O-][S+](Cc1cnc2ccccc2c1)c1nc2ccccc2nc1-c1cccs1 (stereo not given)

>  <labelClass>
inactive

$$$$
>  <compound>
O=S(=O)(SC1=NCCN1)c1ccc2ccccc2c1

>  <labelClass>
inactive

$$$$
>  <compound>
CN1c2ccccc2S(=O)(=O)n2c(COc3ccc(Cl)cc3)nnc21

>  <labelClass>
inactive

$$$$
>  <compound>
COc1c(OC)c(O)c2c(=O)c(OC)c(-c3ccc4c(c3)OCO4)oc2c1O

>  <labelClass>
inactive

$$$$
>  <compound>
CCOC(=O)C(=O)N1C(C)=C(C(=O)OCC)CC(C(=O)OCC)=C1C

>  <labelClass>
inactive

$$$$
>  <compound>
N#C[BH2-][n+]1cn(C2CC(O)C(COP(=O)(O)OC3CC(n4ccc(N)nc4=O)OC3CO)O2)c2nc(N)[nH]c(=O)c21 (stereo not given)

>  <labelClass>
inactive

$$$$
>  <compound>
CC(=O)CC(=O)N1CCSC1=S

>  <labelClass>
inactive

$$$$
>  <compound>
COc1cc(OC)cc(C(=O)Cc2c(C(=O)c3ccccc3)c3ccccc3n2C(=O)c2ccccc2)c1

>  <labelClass>
inactive

$$$$
>  <compound>
CCOC(=O)/C(C#N)=N\Nc1ccc(-n2c(C)nc3ccccc3c2=O)cc1

>  <labelClass>
inactive

$$$$
>  <compound>
CCOC(C[Se]CC(OCC)OCC)OCC

>  <labelClass>
inactive

$$$$
>  <compound>
Cc1cccc(N2C(=O)C3c4[nH]c5ccc(C)cc5c4C4CCC(C(C)(C)C)CC4C3C2=O)c1 (stereo not given)

>  <labelClass>
inactive

$$$$
>  <compound>
CCN(CC)C(=S)SNc1ccc(S(N)(=O)=O)cc1

>  <labelClass>
inactive

$$$$
>  <compound>
CCOCC(NC(=O)C(CC(C)C)NC(=O)OC(C)(C)C)C(N)=O (stereo not drawn) (Boc-Leu-Ser(Et)-NH2; configuration not given here)

>  <labelClass>
inactive

$$$$
>  <compound>
C=CCN1C(=O)CS/C1=N\NC(=O)c1c(C)nc2sccn12

>  <labelClass>
inactive

$$$$
>  <compound>
O=S(=O)(O)c1ccc2c(/N=N/c3ccc(Cl)cc3)c(O)ccc2c1

>  <labelClass>
inactive

$$$$
>  <compound>
CC(=O)Nc1ccc(Cc2ccc3nc(O)cc(C)c3c2)cc1

>  <labelClass>
inactive

$$$$
>  <compound>
CCn1c(-c2ccccc2)cs/c1=N\C(P(=O)(O)O)P(=O)(O)O

>  <labelClass>
inactive

$$$$
>  <compound>
S=C1Cc2c([nH]c3ccccc23)-c2ccccc2N1

>  <labelClass>
inactive

$$$$
>  <compound>
C=CCOc1ccccc1/N=N/C(C#N)=N\Nc1ccccc1OCC=C

>  <labelClass>
inactive

$$$$
>  <compound>
CC(NC1=NCCO1)c1cccc([N+](=O)[O-])c1 (stereo not given)

>  <labelClass>
inactive

$$$$
>  <compound>
O/N=C\c1c(O)ccc2ccccc12

>  <labelClass>
inactive

$$$$
>  <compound>
CC(=O)NC(CCCN)C(=O)NCc1ccccc1 (stereo not given)

>  <labelClass>
inactive

$$$$
>  <compound>
O=C1CSC2=NC3=C(COC/C3=C\c3ccc(Br)cc3)C(c3ccc(Br)cc3)N12 (stereo not given)

>  <labelClass>
inactive

$$$$
>  <compound>
CCOC(=O)c1cccn1S(=O)(=O)c1cc(Cl)ccc1NC(=O)CC

>  <labelClass>
inactive

$$$$
>  <compound>
CCCCCCCCCCCCCC(=O)OCC1OC(=O)C(O)C1O (stereo not given)

>  <labelClass>
inactive

$$$$
>  <compound>
CCCCCCCCCC[C@H](O)[C@H]1CC[C@@H]([C@@H](O)CC[C@H](O)[C@@H]2CCC(CCCCCCC[C@@H](O)CC3=C[C@H](C)OC3=O)O2)O1 (stereo not given in full)

>  <labelClass>
active

$$$$
>  <compound>
Cc1[nH]c(-c2ccccc2)c(O)c1C(=O)OC12CC3CC(CC(C3)C1)C2

>  <labelClass>
inactive

$$$$
>  <compound>
CC(=O)OCC1OC(N2C(=O)/C(=N\NC(N)=S)c3ccc([N+](=O)[O-])cc32)C(OC(C)=O)C1OC(C)=O (stereo not given)

>  <labelClass>
inactive

$$$$
>  <compound>
CSCCC(NC(=O)Cc1ccc(C(=O)c2ccccc2)cc1)C(=O)N1CCN(CCCCN2c3ccccc3Sc3cc(N=[N+]=[N-])ccc32)CC1 (stereo not given)

>  <labelClass>
inactive

$$$$
>  <compound>
O=C1N2Cc3c4ccc5c3CN3C(=O)N6Cc7c(ccc(c7CN1C6(c1ccccc1)C23c1ccccc1)OCCOCCOc1cc(Br)c(Br)cc1OCCOCCO4)OCCOCCOc1cc(Br)c(Br)cc1OCCOCCO5 (stereo not given)

>  <labelClass>
inactive

$$$$
>  <compound>
CN(C)/C=N/[C@@H](C(=O)O)c1ccccc1

>  <labelClass>
inactive

$$$$
>  <compound>
C[C@@]1(O)C2C3CC4C5C3C1[C@](O)(C42)[C@H]5Br (stereo not given in full)

>  <labelClass>
inactive

$$$$
>  <compound>
NC(=S)N/N=C(/CC(=O)c1ccc([N+](=O)[O-])cc1)C(=O)Nc1ncc([N+](=O)[O-])s1

>  <labelClass>
inactive

$$$$
>  <compound>
Clc1nss/c1=N/c1nonc1-c1ccccc1

>  <labelClass>
inactive

$$$$
>  <compound>
O=S(=O)(O)c1cc2ccc1/C=C\c1ccc(cc1S(=O)(=O)O)/N=N\c1ccc(c(S(=O)(=O)O)c1)/C=C\c1ccc(cc1S(=O)(=O)O)/N=N\2

>  <labelClass>
inactive

$$$$
